Some compounds, each annotated with its measured pIC50.
target: Mas-related G-protein coupled receptor member X2 (Homo sapiens, UniProt Q96LB1); experiment: MRGPRX2 Activity Assay
pIC50: −log10 of the molar value.

Query string: Give reported pIC50 for C[C@H](C(=O)Nc1nc2cc3c(cc2s1)OC(F)(F)O3)N1CCC(F)(F)[C@H](c2c[nH]c(=O)c(CN)c2)C1 [WO2025064535, Compound 83] (Mas-related G-protein coupled receptor member X2 (Homo sapiens, UniProt Q96LB1))
Result string: < 4.52

Query string: State pIC50 (Mas-related G-protein coupled receptor member X2 (Homo sapiens, UniProt Q96LB1)) of C[C@@H](C(=O)Nc1nc2cc3c(cc2s1)OC(F)(F)O3)N1CCC(F)(F)[C@@H](c2ccc(=O)[nH]c2)C1 [WO2025064535, Compound 31] .
Result string: < 4.52

Query string: # assay system Mas-related G-protein coupled receptor member X2 (Homo sapiens, UniProt Q96LB1): give pIC50 of C[C@@H](C(=O)Nc1nc2cc3c(cc2s1)OC(F)(F)O3)N1CCC(F)(F)[C@@H](c2cc[n+]([O-])c(CN)c2)C1 [WO2025064535, Compound 64]
Result string: < 4.52

---

Biological target: Mas-related G-protein coupled receptor member X2 (Homo sapiens, UniProt Q96LB1)
Sequence (Q96LB1 whole entry): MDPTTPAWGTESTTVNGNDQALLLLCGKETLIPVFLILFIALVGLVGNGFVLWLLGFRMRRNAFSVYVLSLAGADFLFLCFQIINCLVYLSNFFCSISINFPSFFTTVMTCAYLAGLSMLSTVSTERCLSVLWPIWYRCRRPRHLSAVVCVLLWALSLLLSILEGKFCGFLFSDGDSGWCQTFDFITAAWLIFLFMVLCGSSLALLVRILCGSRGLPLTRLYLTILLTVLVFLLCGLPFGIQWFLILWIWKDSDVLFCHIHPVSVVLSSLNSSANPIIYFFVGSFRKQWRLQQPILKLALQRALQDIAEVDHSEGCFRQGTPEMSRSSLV
Assay: MRGPRX2 Activity Assay
measure_name: IC50

Reference set, count: 2
[
  {
    "compound": "C[C@@H](C(=O)Nc1nc2cc3c(cc2s1)OC(F)(F)O3)N1CCC[C@@H](c2cc[n+]([O-])cc2)C1 [WO2025064535, Compound 49]",
    "IC50": "> 30 µM"
  },
  {
    "compound": "C[C@@H](C(=O)Nc1nc2cc3c(cc2s1)OC(F)(F)O3)N1CCC(F)(F)[C@H](c2c[nH]c(=O)c([C@@H](N)C(F)F)c2)C1 [WO2025064535, Compound 24]",
    "IC50": "> 30 µM"
  }
]

Okay, next one:
Query string: Indicate its recorded IC50; the compound in question is C[C@@H](C(=O)Nc1nc2cc3c(cc2s1)OC(F)(F)O3)N1CCC(F)(F)[C@@H](c2c[nH]c(=O)c(CN3CCC(F)(F)CC3)c2)C1 [WO2025064535, Compound 68]
Result string: > 30 µM

---

Molecular target: Mas-related G-protein coupled receptor member X2 (Homo sapiens, UniProt Q96LB1)
Sequence (Q96LB1 whole entry): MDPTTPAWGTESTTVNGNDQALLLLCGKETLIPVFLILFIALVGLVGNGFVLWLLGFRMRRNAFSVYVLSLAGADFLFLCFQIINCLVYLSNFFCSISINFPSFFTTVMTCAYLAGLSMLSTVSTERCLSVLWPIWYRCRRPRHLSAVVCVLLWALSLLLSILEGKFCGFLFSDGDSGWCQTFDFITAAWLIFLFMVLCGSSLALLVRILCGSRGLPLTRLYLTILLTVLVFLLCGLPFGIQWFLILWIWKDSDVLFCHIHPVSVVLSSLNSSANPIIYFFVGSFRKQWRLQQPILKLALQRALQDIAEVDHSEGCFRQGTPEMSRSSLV
Assay: MRGPRX2 Activity Assay
measure_name: IC50 (nM)

Below are worked cases with known answers.
[
  {
    "chemical_smiles": "C[C@@H](C(=O)Nc1nc2cc3c(cc2s1)OC(F)(F)O3)N1CCC(F)(F)[C@H](c2c[nH]c(=O)c(CN)c2)C1",
    "measure_name": "IC50",
    "numeric_readout": 36
  },
  {
    "chemical_smiles": "C[C@@H](C(=O)Nc1nc2cc3c(cc2s1)OC(F)(F)O3)N1CCO[C@@H](c2ccc(=O)[nH]c2)C1",
    "measure_name": "IC50",
    "numeric_readout": 49
  },
  {
    "chemical_smiles": "C[C@@H](C(=O)Nc1nc2cc3c(cc2s1)OC(F)(F)O3)N1CCC(F)(F)[C@H](c2ncn[nH]2)C1",
    "measure_name": "IC50",
    "numeric_readout": 509
  },
  {
    "chemical_smiles": "C[C@@H](C(=O)Nc1nc2cc3c(cc2s1)OC(F)(F)O3)N1CCC(F)(F)[C@@H](c2cc[n+]([O-])c([C@H](O)CO)c2)C1",
    "measure_name": "IC50",
    "numeric_readout": 30
  },
  {
    "chemical_smiles": "C[C@@H](C(=O)Nc1nc2cc3c(cc2s1)OC(F)(F)O3)N1CCC(F)(F)[C@H](c2c[nH]c(=O)c(CO)n2)C1",
    "measure_name": "IC50",
    "numeric_readout": 36
  }
]

[I] C[C@@H](C(=O)Nc1nc2cc3c(cc2s1)OC(F)(F)O3)N1CC[C@H](F)[C@@H](c2cc[n+]([O-])cc2)C1
[II] C[C@@H](C(=O)Nc1nc2cc3c(cc2s1)OC(F)(F)O3)N1CCC(F)(F)[C@@H](c2c[nH]c(=O)cn2)C1
[III] CNCc1cc([C@H]2CN([C@@H](C)C(=O)Nc3nc4cc5c(cc4s3)OC(F)(F)O5)CCC2(F)F)cc[n+]1[O-]
[IV] C[C@@H](C(=O)Nc1nc2cc3c(cc2s1)OCCO3)N1CCC(F)(F)[C@H](c2ccc(=O)[nH]c2)C1
Query string: # rank by IC50, ascending (min first) Your task in answering is to list the labels in the requested order.
Result string: II, I, IV, III
